test system: Hepatotoxicity; details: Liver;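 note: Jaundice-related hepatic side-effect score drawn from the training data of the DILIps (drug-induced liver injury prediction system)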; note: call rule not given here
Listing: HepSE_jaundice of selected compounds

compound	HepSE_jaundice
NNCCc1ccccc1	1
CC(C)c1c(C(=O)Nc2ccccc2)c(-c2ccccc2)c(-c2ccc(F)cc2)n1CC[C@@H](O)C[C@@H](O)CC(=O)O	1
CN1CC[C@]23c4c5ccc(O)c4O[C@H]2[C@@H](O)C=C[C@H]3[C@H]1C5	0
CN1CCC[C@H]1c1cccnc1	0
NCCCC(O)(P(=O)(O)O)P(=O)(O)O	0
CC1=C(/C=C/C(C)=C/C=C/C(C)=C/CO)C(C)(C)CCC1	0
CC1=C(C(=O)O)N2C(=O)[C@@H](NC(=O)[C@H](N)c3ccccc3)[C@H]2SC1 [CEPHALEXIN ANHYDROUS]	1
[H]/N=C(/N)N[C@H]1[C@H](O)[C@@H](O)[C@H](O[C@@H]2O[C@@H](C)[C@](O)(C=O)[C@H]2O[C@@H]2O[C@@H](CO)[C@H](O)[C@@H](O)[C@@H]2NC)[C@@H](N/C(N)=N\[H])[C@@H]1O	0
CC(C[N+](C)(C)C)OC(N)=O (stereo not drawn)	0
COC(=O)[C@H](c1ccccc1Cl)N1CCc2sccc2C1	0
CC(C)(C(=O)c1cccnc1)c1cccnc1	0
CNCC[C@H](Oc1cccc2ccccc12)c1cccs1	1
CNCCC=C1c2ccccc2CCc2ccccc21	1
OCCOCCN1CCN(C2=Nc3ccccc3Sc3ccccc32)CC1	0
CC(C)c1cccc(C(C)C)c1O	0
CCCCc1oc2ccccc2c1C(=O)c1cc(I)c(OCCN(CC)CC)c(I)c1	0
NNc1nncc2ccccc12 [HYDRALAZINE]	0
C#C[C@]1(O)CC[C@H]2[C@@H]3CCC4=CC(=O)CC[C@@H]4[C@H]3CC[C@@]21CC	0
Nc1nc(=O)n([C@@H]2CS[C@H](CO)O2)cc1F	0
Clc1cccc(Cl)c1N=C1NCCN1	0
NCCCNCCSP(=O)(O)O	0
CC(=O)O[C@H]1C[C@@H]2CC[C@@H]3[C@H](CC[C@@]4(C)[C@H]3C[C@H]([N+]3(C)CCCCC3)[C@@H]4OC(C)=O)[C@@]2(C)C[C@@H]1[N+]1(C)CCCCC1	0
Sc1ncnc2nc[nH]c12 [MERCAPTOPURINE ANHYDROUS]	0
OCC(S)CS (stereo not drawn)	0
CC(=O)[C@@]1(O)CC[C@H]2[C@@H]3C[C@H](C)C4=CC(=O)CC[C@]4(C)[C@H]3CC[C@@]21C	1
O=C(O)CN(CCN(CC(=O)O)CC(=O)O)CC(=O)O	0
O=C1NC(=O)C(c2ccccc2)(c2ccccc2)N1	0
CNC[C@H](O)c1ccc(O)c(O)c1 [EPINEPHRINE]	0
CO[C@H]1/C=C/O[C@@]2(C)Oc3c(C)c(O)c4c(c3C2=O)C2=NC3(CCN(CC(C)C)CC3)NC2=C(NC(=O)/C(C)=C\C=C\[C@H](C)[C@H](O)[C@@H](C)[C@@H](O)[C@@H](C)[C@H](OC(C)=O)[C@@H]1C)C4=O	0
CN1[C@@H]2CC[C@H]1C[C@@H](OC(=O)C(CO)c1ccccc1)C2 (stereo partly drawn)	0
CC(C)NCC(O)COc1ccc(CC(N)=O)cc1 (stereo not drawn)	0
CC(=O)[O-].[Na+] [SODIUM ACETATE]	0
CNCCCC12CCC(c3ccccc31)c1ccccc12	1
CNCCCN1c2ccccc2CCc2ccccc21	1
NCC(=O)O	0
Nc1ccn([C@@H]2O[C@H](CO)[C@@H](O)[C@@H]2O)c(=O)n1	1
Cc1cccc(Nc2ccccc2C(=O)O)c1C	1
NC(N)=Nc1nc(CSCCC(N)=NS(N)(=O)=O)cs1	1

meta.source: ChEMBL document CHEMBL1909294
